Biological target: human CH24H (Homo sapiens)
Construct: Using Full-Length Mammalian Gene Collection No. 4819975 (Invitrogen) as a template; made in house; host or cells: FreeStyle 293-F cells (transient transfection with pcDNA3.1(+)/hCH24H); crude lysate supernatant
Sequence (Q9Y6A2 whole entry): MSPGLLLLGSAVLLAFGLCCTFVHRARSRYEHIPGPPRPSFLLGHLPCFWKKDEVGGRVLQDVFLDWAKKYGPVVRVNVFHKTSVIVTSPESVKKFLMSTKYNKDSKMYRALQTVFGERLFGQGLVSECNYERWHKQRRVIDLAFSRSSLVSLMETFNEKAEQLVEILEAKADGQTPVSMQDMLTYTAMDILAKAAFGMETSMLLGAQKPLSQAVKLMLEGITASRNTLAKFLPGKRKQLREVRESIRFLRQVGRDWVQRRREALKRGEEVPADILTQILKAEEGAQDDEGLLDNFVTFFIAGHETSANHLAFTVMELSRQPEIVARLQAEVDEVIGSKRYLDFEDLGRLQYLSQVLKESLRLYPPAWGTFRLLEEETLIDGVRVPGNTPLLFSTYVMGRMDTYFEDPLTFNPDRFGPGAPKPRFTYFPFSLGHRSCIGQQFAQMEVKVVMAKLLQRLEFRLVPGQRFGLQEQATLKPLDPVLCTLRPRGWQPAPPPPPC
Assay: Measurement of CH24H inhibitory activity (24-HC produced from [14C] cholesterol by human CH24H lysate)
Type: biochemical
Conditions: 1 μM test compound, [14C] cholesterol 15 μM, 37° C., 5 hr, read-out: Inhibitory rate (%) at 1 μM
Procedure: The expression of human CH24H was performed using FreeStyle 293 Expression System (Invitrogen). […] For the measurement of CH24H inhibitory activity, using the human CH24H lysate prepared in Experimental Example 2, the amount of 24-HC produced from cholesterol by catalysis of CH24H was measured in the presence of a test compound, and the amount was compared with that in the absence of the test compound. […]
Record form. Attribute: inhibition at 1 µM. Fill in for each entry.
Numbers only, in %.

# annotated cases, reported inhibition at 1 µM shown
1. O=C(c1scnc1-c1ccncc1)N1CCC(O)(Cc2ccccc2)CC1: 92
2. Cc1ccc(-c2ccncc2)c(C(=O)N2CCC(O)(Cc3ccccc3)CC2)c1: 92
3. O=C(c1ccccc1-c1ccncn1)N1CCC(O)(Cc2ccccn2)CC1: 90
4. Cn1ncc(-c2ccncc2)c1C(=O)N1CCC(O)(Cc2ccccc2)CC1: 92

Dear colleague, could you please provide inhibition at 1 µM for the compounds listed below?
1. Cc1ccc(-c2ccncc2)c(C(=O)N2CCC(O)(CC3=NCCS3)CC2)c1
2. O=C(c1ccc(F)cc1-c1ccncc1)N1CCC(O)(Cc2ccccn2)CC1
3. N#Cc1ccc(CC2(O)CCN(C(=O)c3cccnc3-c3ccncc3)CC2)cc1
4. O=C(c1ccccc1-c1ccncn1)N1CCC(O)(Cc2ccccc2)CC1
5. Cc1noc(-c2ccncc2)c1C(=O)N1CCC(O)(Cc2ccccc2)CC1
6. O=C(c1ccccc1-c1cnco1)N1CCC(O)(Cc2ccc(F)cc2F)CC1
7. O=C(c1cccnc1-c1ccncn1)N1CCC(O)(Cc2ccccc2)CC1
8. O=C(c1cc(F)c(F)cc1-c1ccncn1)N1CCC(O)(Cc2ccccn2)CC1

# output
1: 90; 2: 91; 3: 89; 4: 92; 5: 90; 6: 89; 7: 90; 8: 90

Need inhibition at 1 µM for each of these compounds.
1. O=C(c1cccnc1-c1ccncc1)N1CCC(O)(Cc2ccc(F)cc2)CC1
2. O=C(c1cccnc1-c1ccncc1)N1CCC(O)(Cc2ccc(F)cc2F)CC1

# output
89
89
